Cited source: paper PMC4552634

# Tested on: P. falciparum stage V gametocytes
# Design: BacTiter-Glo ATP luminescence viability of purified stage V gametocytes in 384-well plates, per cent inhibition versus DMSO
# condition.notes: 48 h, 5 µM; inhibitor
In all, about 13,000 compounds went through this assay and about 3,200 (25%) showed an effect of 50% or more. The list shows a part of the results.
reported.metric: % Inhibition
Answer format: number, then unit.

// known answers, use as guide
>>> endpoint_value("O=C(CSc1nn(-c2ccccc2)c(=S)s1)c1c[nH]c2ccccc12")
"95.1%"
>>> endpoint_value("O=C(/C=C/c1ccc(-c2nc3ccc(Cl)cc3[nH]2)cc1)NC1CCN(Cc2ccccc2)CC1")
"63%"
>>> endpoint_value("Cc1ccc2nc(-c3ccc(C(=O)NC4CCN(Cc5ccccc5)CC4)s3)[nH]c2c1")
"-1.012%"

Now consider the entry below.
Readout % Inhibition for `O=C(c1c(-c2[nH]c3ccccc3c2C(=O)C(F)(F)F)[nH]c2ccccc12)C(F)(F)F` , test system P. falciparum stage V gametocytes, was 0.8709%

###

A collection of compounds and their measured % Inhibition
# System: P. falciparum stage V gametocytes
# Parameters: BacTiter-Glo ATP luminescence viability of purified stage V gametocytes in 384-well plates, per cent inhibition versus DMSO
# condition.notes: 48 h, 5 µM; inhibitor
Screen size: about 13,000 compounds; about 3,200 (25%) showed an effect of 50% or more. The list shows a part of the results.
# value in %; strip the unit string

>>> endpoint_value("Cc1cc(C)n(-c2nc(Nc3cccc(C(F)(F)F)c3)nc(-n3nc(C)cc3C)n2)n1 [TCMDC-125770]")
16.09
>>> endpoint_value("COc1cccc(C(O)CNc2ccnc(Nc3cccc(-c4csc(C)n4)c3)n2)c1 (centres unmarked) [TCMDC-136574]")
8.83
>>> endpoint_value("CCC(C)(C)C1CCc2nc(N)nc(N)c2C1 (centres unmarked) [TCMDC-137870]")
-20.62
>>> endpoint_value("FC(F)(F)c1cccc(Nc2nc(-n3ccnc3)nc(-n3ccnc3)n2)c1 [TCMDC-123871]")
5.028
>>> endpoint_value("COc1ccccc1C1CC(c2ccc(C)cc2)=NN1C(=O)c1ccccc1 (centres unmarked) [TCMDC-123887]")
21.23

Now take the following compound into account.
For this compound ( CS(=O)(=O)c1ccc(CNCc2ccc(-c3ccc(-c4nc5cc(C(F)(F)F)ccc5[nH]4)cc3)cc2)cc1.O=C(O)C(F)(F)F [TCMDC-132901] ), measured % Inhibition is -22.07

###

Reported % Inhibition values are given for each entry in this list.
# System: P. falciparum stage V gametocytes
# Set-up: BacTiter-Glo ATP luminescence viability of purified stage V gametocytes in 384-well plates, per cent inhibition versus DMSO
# condition.notes: 48 h, 5 µM; inhibitor
Screen size: about 13,000 compounds; about 3,200 (25%) showed an effect of 50% or more. Some of the results follow.
// note: answer is a bare numeric in %

The measured % Inhibition associated with CCCCCN1CCCC(NS(=O)(=O)c2ccc(C(=O)Nc3ccc(C(F)(F)F)cc3)cc2)C1 (centres unmarked) reads 16.66

Measured % Inhibition of `CCOC(=O)N(C)/N=C/[C@H](CCc1ccccc1)NC(=O)[C@H](CC(C)C)NC(=O)c1cc2cccc(OC)c2o1` : 75

The reported % Inhibition of the molecule `Cc1cc(F)ccc1[C@H]1CNCCN1C(=O)N(C)C(C)(C)c1cc(C(F)(F)F)cc(C(F)(F)F)c1` was 62.57

The molecule listed as `Cc1ccc(NC(=O)Nc2ccc(Cl)c(C(F)(F)F)c2)cc1-c1ccc(C(=O)Nc2ccncc2)cc1` has a reported % Inhibition of -87.03

// field: % Inhibition; key: O=C(Nc1ccc2c(c1)CCN2C1CCN(Cc2cccc(F)c2F)C1)c1ccco1 (centres unmarked) ; value = 14.1

Item: COc1ccccc1C1CCN(C2CCC(NC(=O)/C=C/c3cccc(C(F)(F)F)c3)CC2)CC1 (centres unmarked) | % Inhibition: -60.89

So for `Cc1cc(F)ccc1[C@H]1CNCCN1C(=O)N(C)[C@@H](C)c1cc(C(F)(F)F)cc(C(F)(F)F)c1` , the logged % Inhibition turned out to be 76.86
